- System: MALME-3M melanoma
- Experimental Protocol: NCI-60 one-dose screen, 48 h (100 = growth as untreated, 0 = no growth, -100 = all killed)
- Details: 10 µM
About 83,000 compounds went through this panel and 20% of them were active in at least one assay; those are over-represented in the sample as a whole.
Observable: growth (%)
Just the number please, in %, no unit attached.

Retrieve growth measured for `Cc1ccc(/C=C/C(=O)c2ccc(S(=O)(=O)NCCNc3nc(Nc4ccc(F)cc4)nc(N(C)C)n3)cc2)cc1` and print it.
69.1

Retrieve growth measured for `O=C(N/N=C/c1ccc(-c2cccc([N+](=O)[O-])c2)o1)c1[nH]c2ccc(Br)cc2c1-c1ccccc1` and print it.
39

Retrieve growth measured for `COc1ccc(-c2cc(C(=O)N=Nc3c(O)[nH]c4ccc(Br)cc34)c3ccccc3n2)cc1` and print it.
45.9

Retrieve growth measured for `CN1C(=O)/C(=C/c2nccs2)SC1=S` and print it.
82.1

Retrieve growth measured for `O=C(Nc1cccc(C(F)(F)F)c1)c1cncc(C#Cc2cnc3ccc(N4CCOCC4)nn23)c1` and print it.
-29.7

Retrieve growth measured for `CC1(C)CC[C@]2(C(=O)O)CC[C@]3(C)C(=CC[C@@H]4[C@@]5(C)C/C(=C/c6ccncc6)[C@H](O)C(C)(C)[C@@H]5CC[C@]43C)[C@@H]2C1` and print it.
73.1

Retrieve growth measured for `COc1ccc(C(=O)/C=C/c2ccc(Cl)c(C(F)(F)F)c2)cc1S(N)(=O)=O` and print it.
-97.9

Retrieve growth measured for `COc1cc2oc(-c3cccc(C(=O)Nc4ccc(Cl)cc4)c3)cc(=O)c2c(OCCNC(=O)CNC(=O)OC(C)(C)C)c1OC` and print it.
65

Retrieve growth measured for `COc1cc(OC(F)(F)F)ccc1C(=O)Nc1sc2c(c1C#N)CCC(=O)C2` and print it.
85

Retrieve growth measured for `Cc1cc(C)nc(SCC(=O)Nc2ccc(S(N)(=O)=O)cc2)n1` and print it.
99.1

Retrieve growth measured for `O=c1[nH]c2ccccc2cc1CSc1ccc(Nc2nccc(-c3ccc4ccccc4c3)n2)cc1` and print it.
39

Retrieve growth measured for `COc1ccc(Nc2nc(N)n(Cc3cccc(Br)c3)n2)cc1` and print it.
-25

Retrieve growth measured for CCC(C)S(=O)(=O)c1oc(-c2ccc(C)cc2)nc1S(=O)(=O)c1ccccc1 (centres undefined) and print it.
-96.4

Retrieve growth measured for `C#Cc1ccc(S(=O)(=O)Nc2cccc(-c3csc(NC(C)=O)n3)c2)cc1` and print it.
78.7

Reference for the values: PubChem BioAssay (NCI)
